molecular target: NLRP3 (Homo sapiens, UniProt Q96P20); experiment: THP-1 cells pyroptosis assay; assay type: cell-based; parameters: Seed THP-1 cells (25,000 cells/well) containing 1.0 μg/ml LPS; host or cells: THP-1 cells, LPS-primed, nigericin-stimulated; details: 1.0 μg/ml LPS, compound 3 hrs, nigericin 5 μM 1 hr, resazurin readout
Sequence (Q96P20 whole entry): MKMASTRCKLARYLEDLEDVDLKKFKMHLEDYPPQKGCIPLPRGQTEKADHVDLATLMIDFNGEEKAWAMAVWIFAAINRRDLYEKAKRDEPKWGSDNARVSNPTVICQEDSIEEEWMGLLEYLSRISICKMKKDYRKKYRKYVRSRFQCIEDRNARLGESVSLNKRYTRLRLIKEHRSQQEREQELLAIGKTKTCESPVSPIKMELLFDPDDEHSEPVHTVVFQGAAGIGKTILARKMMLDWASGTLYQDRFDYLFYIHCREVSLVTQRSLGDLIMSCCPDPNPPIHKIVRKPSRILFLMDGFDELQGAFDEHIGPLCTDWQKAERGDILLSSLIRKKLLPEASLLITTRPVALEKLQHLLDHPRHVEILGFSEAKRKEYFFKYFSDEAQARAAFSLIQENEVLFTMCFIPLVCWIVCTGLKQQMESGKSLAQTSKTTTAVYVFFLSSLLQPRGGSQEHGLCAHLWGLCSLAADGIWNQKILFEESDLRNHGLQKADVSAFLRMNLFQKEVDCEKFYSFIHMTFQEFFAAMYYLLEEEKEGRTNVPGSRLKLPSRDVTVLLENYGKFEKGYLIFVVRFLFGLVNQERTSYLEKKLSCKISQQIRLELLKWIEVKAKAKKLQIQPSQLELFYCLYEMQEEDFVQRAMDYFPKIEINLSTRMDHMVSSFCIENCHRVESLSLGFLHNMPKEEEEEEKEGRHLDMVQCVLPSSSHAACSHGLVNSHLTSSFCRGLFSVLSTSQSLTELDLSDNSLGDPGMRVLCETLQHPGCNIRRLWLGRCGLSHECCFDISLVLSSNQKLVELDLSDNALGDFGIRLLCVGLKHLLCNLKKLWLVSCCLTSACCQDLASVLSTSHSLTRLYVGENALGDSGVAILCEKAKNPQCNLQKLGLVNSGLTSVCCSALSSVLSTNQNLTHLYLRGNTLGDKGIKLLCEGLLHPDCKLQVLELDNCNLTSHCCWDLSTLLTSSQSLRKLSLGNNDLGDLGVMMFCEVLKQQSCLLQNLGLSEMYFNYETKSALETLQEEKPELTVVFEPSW
pIC50: −log10 of the molar value.
pIC50 overview

Known results for compounds:
| line-notation | pIC50 |
| --- | --- |
| CN1CCOc2cc(ccn2)-c2ccc3c(c2Nc2nnc([nH]2)S(=O)(=O)N2CC(C1)C2)CCC3 | ≥ 7.00 |
| CN1CCCOc2cc(ccn2)-c2ccc3c(c2Nc2nnc([nH]2)S(=O)(=O)N2CCC1CC2)CCC3 | ≥ 5.30 |
| Cc1cc2c(c3c1-c1ccnc(c1)OCCCN1CCC4(C1)CN(C4)S(=O)(=O)c1nnc([nH]1)N3)CCC2 | ≥ 7.00 |
| CN1CCOc2cc(ccn2)-c2ccc3c(c2Nc2nnc([nH]2)S(=O)(=O)N2CC[C@H](C1)C2)CCC3 | ≥ 6.30 |
| O=S1(=O)c2nnc([nH]2)Oc2c(ccc3c2CCC3)-c2ccnc(c2)OCCCN2CCC3(C2)CN1C3 | ≥ 5.30 |

Lookup: With NLRP3 (Homo sapiens, UniProt Q96P20) as the test system, provide measured pIC50 for this compound: O=S1(=O)c2nnc([nH]2)Nc2c(ccc3c2CCC3)-c2ccnc(c2)OCCN2CCCC23CCN1CC3
Found: ≥ 6.30

Lookup: With NLRP3 (Homo sapiens, UniProt Q96P20) as the test system, provide measured pIC50 for this compound: CC1(C)CCOc2cc(ccn2)-c2ccc3c(c2Nc2nnc([nH]2)S(=O)(=O)c2ccn1n2)CCC3
Found: ≥ 5.00

Lookup: With NLRP3 (Homo sapiens, UniProt Q96P20) as the test system, provide measured pIC50 for this compound: CN(C)CC12CCCCOc3cc(ccn3)-c3ccc4c(c3Nc3nnc([nH]3)S(=O)(=O)N(C1)C2)CCC4
Found: ≥ 6.00

Lookup: With NLRP3 (Homo sapiens, UniProt Q96P20) as the test system, provide measured pIC50 for this compound: O=S1(=O)c2nnc([nH]2)Nc2c(ccc3c2CCC3)-c2ccnc(c2)OCC2CN(C2)C2CCN1CC2
Found: ≥ 5.30

Lookup: With NLRP3 (Homo sapiens, UniProt Q96P20) as the test system, provide measured pIC50 for this compound: O=S1(=O)c2nnc([nH]2)Nc2c(ccc3c2CCC3)-c2ccnc(c2)OCCCN2CCOCC23CCN1CC3
Found: ≥ 6.30

Lookup: With NLRP3 (Homo sapiens, UniProt Q96P20) as the test system, provide measured pIC50 for this compound: O=S1(=O)c2nnc([nH]2)Nc2c(ccc3c2CCC3)-c2ccnc(c2)OCCCCN2CCC3(C2)CN1C3
Found: ≥ 6.30

Lookup: With NLRP3 (Homo sapiens, UniProt Q96P20) as the test system, provide measured pIC50 for this compound: O=S1(=O)c2nnc([nH]2)Nc2c(ccc3c2CCC3)-c2ccnc(c2)OCCCN2C[C@@H]3C[C@H]2CN31
Found: ≥ 5.30

Lookup: With NLRP3 (Homo sapiens, UniProt Q96P20) as the test system, provide measured pIC50 for this compound: CN1CCOc2cc(ccn2)-c2ccc3c(c2Nc2nnc([nH]2)S(=O)(=O)N2CCC1CC2)CCC3
Found: ≥ 6.30

Lookup: With NLRP3 (Homo sapiens, UniProt Q96P20) as the test system, provide measured pIC50 for this compound: CC1(C)COc2cc(ccn2)-c2ccc3c(c2Nc2nnc([nH]2)S(=O)(=O)N2CC4(CCN1C4)C2)CCC3
Found: ≥ 7.00

Lookup: With NLRP3 (Homo sapiens, UniProt Q96P20) as the test system, provide measured pIC50 for this compound: CN1CCOc2cc(ccn2)-c2ccc3c(c2Nc2nnc([nH]2)S(=O)(=O)N2CC[C@@H](C1)C2)CCC3
Found: ≥ 6.30
